TESTED TARGET: human ENT1 (Homo sapiens)
Sequence (Q99808 whole entry): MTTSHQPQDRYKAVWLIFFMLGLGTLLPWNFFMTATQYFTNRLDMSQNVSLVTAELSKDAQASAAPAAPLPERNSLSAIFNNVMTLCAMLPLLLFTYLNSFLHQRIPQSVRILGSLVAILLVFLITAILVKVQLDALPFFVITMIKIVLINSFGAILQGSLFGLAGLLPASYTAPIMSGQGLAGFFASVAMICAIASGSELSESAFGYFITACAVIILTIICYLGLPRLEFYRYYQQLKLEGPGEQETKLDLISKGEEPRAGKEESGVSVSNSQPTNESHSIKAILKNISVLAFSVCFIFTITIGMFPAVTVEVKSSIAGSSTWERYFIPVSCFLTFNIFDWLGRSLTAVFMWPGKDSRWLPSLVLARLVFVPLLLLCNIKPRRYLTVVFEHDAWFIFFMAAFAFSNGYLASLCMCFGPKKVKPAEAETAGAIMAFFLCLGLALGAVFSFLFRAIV
PROTOCOL DESCRIPTION: ENT1 binding assay (competition with Sahenta-DY647 on JAR cells)
Parameters: JAR cells expressing ENT1 were bought from ATCC® (HTB-144TM); host or cells: JAR cells (human choriocarcinoma line; whole cells)
RECORDED CONDITIONS: competition with Sahenta-DY647 100 nM, 4° C.
Description: The present assay aims at showing that the compounds of the present invention can bind to human ENT1. The principle of the assay is a competition between the compounds of this invention and Sahenta-DY647, an ENT1 inhibitor that emits fluorescence (Ex = 630 nm, Em = 670 nm). By measuring the fluorescence at the end of the assay we could assess the binding potency of the compounds of the present invention. JAR cells expressing ENT1 were bought from ATCC® (HTB-144TM). […]
MEASURED ENDPOINT: IC50

| COMPOUND | IC50 |
| --- | --- |
| COc1cc2cc(c1OC)OCCCC(OC(=O)c1cccnc1)CCN1CCCN(CCCOC2=O)CC1 (stereo not drawn) [Compound 53] | 1 to 20 nM |
| COc1cc2cc(c1OC)OCCCC(OC(=O)c1ccccn1)CCN1CCCN(CCCOC2=O)CC1 (stereo not drawn) [Compound 52] | 1 to 20 nM |

Quick one: give me IC50 for each item below, same order please.
1. COc1cc(C(=O)O[C@H]2CCCOc3cc(cc(OC)c3OC)C(=O)OCCCN3CCN(CC2)CC(F)(F)C3)cc(OC)c1OC [Compound 119]
2. COc1cc2cc(c1OC)OCCC[C@@H](OC(=O)c1ccccc1)CCN1CCCN(CCCOC2=O)CC1 [Compound 31]

1: 1 to 20 nM; 2: 1 to 20 nM

Quick one: give me IC50 for each item below, same order please.
1. COc1cc2cc(c1OC)OCCC[C@@H](OC(=O)c1ccccc1)CCN(C)CCN(C)CCCOC2=O [Compound 35]
2. COc1ccc(C(=O)OC2CCCOc3cc(cc(OC)c3OC)C(=O)OCCCN3CCCN(CC2)CC3)c(OC(F)(F)F)c1 (stereo not drawn) [Compound 51]

["1 to 20 nM", "20 to 500 nM"]

* * *

For each entry below, report its pIC50 value.
TESTED TARGET: human ENT1 (Homo sapiens)
PROTOCOL DESCRIPTION: ENT1 binding assay (competition with Sahenta-DY647 on JAR cells)
Parameters: JAR cells expressing ENT1 were bought from ATCC® (HTB-144TM); host or cells: JAR cells (human choriocarcinoma line; whole cells)
RECORDED CONDITIONS: competition with Sahenta-DY647 100 nM, 4° C.
pIC50: −log10 of the molar value.

Known pIC50 results, listed for orientation:
| MOLECULE | pIC50 |
| --- | --- |
| COc1cc2cc(c1OC)OCCCC(OC(=O)c1ccc(Cl)c(Cl)c1)CCN1CCCN(CCCOC2=O)CC1 (stereo not shown) [Compound 24] | 6.30 to 7.70 |
| COc1cc2cc(c1OC)OCCCC(OC(=O)CCC(=O)N1CCOCC1)CCN1CCCN(CCCOC2=O)CC1 (stereo not shown) [Compound 103] | 7.70 to 9.00 |
| COc1cc2cc(c1OC)OCCCC(OC(=O)c1c[nH]nn1)CCN1CCCN(CCCOC2=O)CC1 (stereo not shown) [Compound 58] | 7.70 to 9.00 |

Quick one: give me pIC50 for each item below, same order please.
1. COc1cc2cc(c1OC)OCCCC(OC(=O)CC1COC1)CCN1CCCN(CCCOC2=O)CC1 (stereo not shown) [Compound 66]
2. COc1cc(C(=O)O[C@H]2CCCn3ncc4c(Cl)cc(cc43)C(=O)NCCCN3CCCN(CC2)CC3)cc(OC)c1OC [Compound 15]
3. COc1cc2cc(c1OC)OCCCC(OC(=O)c1cccc(S(C)(=O)=O)c1)CCN1CCCN(CCCOC2=O)CC1 (stereo not shown) [Compound 45]
4. COc1cc2cc(c1OC)OCCC[C@@H](O/N=C/c1ccccc1)CCN1CCCN(CCCNC2=O)CC1 [Compound 115]
5. COc1cc2cc(c1OC)OCCCC(OC(=O)c1ccc(C(F)(F)F)cc1)CCN1CCCN(CCCOC2=O)CC1 (stereo not shown) [Compound 83]
6. COc1cc2cc(c1OC)OCCCC(OC(=O)c1ccccc1F)CCN1CCCN(CCCOC2=O)CC1 (stereo not shown) [Compound 47]

1: 7.70 to 9.00; 2: < 6.30; 3: 7.70 to 9.00; 4: < 6.30; 5: 7.70 to 9.00; 6: 7.70 to 9.00

Quick one: give me pIC50 for each item below, same order please.
1. COc1cc2cc(c1OC)OCCCC(O)CCN1CCCN(CCCNC2=O)CC1 (stereo not shown) [Compound 117]
2. COc1cc2cc(c1OC)OCCCC(OC(=O)CCn1cnnn1)CCN1CCCN(CCCOC2=O)CC1 (stereo not shown) [Compound 98]
3. COc1cc2cc(c1OC)OCCCC(OC(=O)c1cc(F)cc(F)c1)CCN1CCCN(CCCOC2=O)CC1 (stereo not shown) [Compound 84]

["< 6.30", "7.70 to 9.00", "7.70 to 9.00"]

Quick one: give me pIC50 for each item below, same order please.
1. COc1cc2cc(c1OC)OCCCC(OC(=O)c1ccc3c(c1)CCC(=O)N3)CCN1CCCN(CCCOC2=O)CC1 (stereo not shown) [Compound 74]
2. COc1cc2cc(c1OC)OCCCC(OC(=O)c1c(F)cccc1F)CCN1CCCN(CCCOC2=O)CC1 (stereo not shown) [Compound 71]
3. COc1cc2cc(c1OC)OCCCC(O/N=C/c1ccccc1)CCN1CCCN(CCCNC2=O)CC1 (stereo not shown) [Compound 114]
4. COc1cc2cc(c1OC)OCCCC(OC(=O)c1ccc3c(c1)ncn3C)CCN1CCCN(CCCOC2=O)CC1 (stereo not shown) [Compound 89]
5. COc1cc2cc(c1OC)OCCCC(n1cc(-c3ccccc3)nn1)CCN1CCCN(CCCOC2=O)CC1 (stereo not shown) [Compound 108]

1: 7.70 to 9.00; 2: 7.70 to 9.00; 3: < 6.30; 4: 7.70 to 9.00; 5: < 6.30

Quick one: give me pIC50 for each item below, same order please.
1. COc1cc2cc(c1OC)OCCCC(OC(=O)c1cocn1)CCN1CCCN(CCCOC2=O)CC1 (stereo not shown) [Compound 57]
2. COc1cc2cc(c1OC)OCCCC(OC(=O)c1cc(C)cc(C(F)(F)F)c1)CCN1CCCN(CCCOC2=O)CC1 (stereo not shown) [Compound 49]

["7.70 to 9.00", "6.30 to 7.70"]
